# tgt: NET (Oryctolagus cuniculus, UniProt G1TDF9)
# Construct: tissue Charles River Laboratories, Inc. (animals); host or cells: cerebral cortex of New Zealand White rabbit
# Sequence (G1TDF9 1-617): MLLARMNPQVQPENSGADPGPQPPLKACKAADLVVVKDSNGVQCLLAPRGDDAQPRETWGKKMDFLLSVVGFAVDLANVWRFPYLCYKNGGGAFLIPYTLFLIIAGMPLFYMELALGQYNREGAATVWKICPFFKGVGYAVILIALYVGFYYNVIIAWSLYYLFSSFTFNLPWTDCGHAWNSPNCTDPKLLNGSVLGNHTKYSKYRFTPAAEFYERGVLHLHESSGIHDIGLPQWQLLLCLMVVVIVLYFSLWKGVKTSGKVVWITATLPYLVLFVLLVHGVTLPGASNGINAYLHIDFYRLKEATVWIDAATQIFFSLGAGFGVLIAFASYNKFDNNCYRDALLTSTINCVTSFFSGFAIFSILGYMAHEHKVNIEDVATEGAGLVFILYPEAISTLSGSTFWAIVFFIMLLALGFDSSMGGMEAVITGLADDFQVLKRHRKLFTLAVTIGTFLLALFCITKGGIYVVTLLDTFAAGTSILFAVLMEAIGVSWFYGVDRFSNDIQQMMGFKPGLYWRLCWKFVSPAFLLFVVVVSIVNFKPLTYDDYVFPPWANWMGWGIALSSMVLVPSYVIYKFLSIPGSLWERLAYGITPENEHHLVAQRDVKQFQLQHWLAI
# assay name: [3H]nisoxetine binding assay to rabbit cortical membranes
# condition context: rabbit cortical membranes; tested as hydrochloride salts
// reported Ki per item
parameter measured: Ki

>>> df
                                   compound  measured_result
0  Cl.FC(F)(F)c1ccc(COC2(c3ccc(C(F)(F)F)cc3)CCNCC2)cc1 [21b]          > 10 µM
1  Cl.Fc1ccc(C2(OCc3ccccc3F)CCNCC2)cc1 [20c]           0.4 µM
2  Cl.Fc1ccc(COC2(c3ccc(F)cc3)CCNCC2)cc1 [20a]          0.52 µM
3  Cl.Fc1ccc(C2(OCc3ccc(C(F)(F)F)cc3)CCNCC2)cc1 [compound 20b]            10 µM
4  Cl.Fc1ccccc1COC1(c2ccc(C(F)(F)F)cc2)CCNCC1 [21c]          2.07 µM
5  Cl.FC(F)(F)c1ccc(C2(OCc3ccc4c(c3)OCO4)CCNCC2)cc1 [21d]          2.45 µM
6  Cl.Fc1ccc(C2(OCc3ccc4c(c3)OCO4)CCNCC2)cc1 [20d]          1.74 µM

* * *

Recorded measurements of Ki, one per entry
# tgt: UniProtKB P31645
# Sequence (P31645 whole entry): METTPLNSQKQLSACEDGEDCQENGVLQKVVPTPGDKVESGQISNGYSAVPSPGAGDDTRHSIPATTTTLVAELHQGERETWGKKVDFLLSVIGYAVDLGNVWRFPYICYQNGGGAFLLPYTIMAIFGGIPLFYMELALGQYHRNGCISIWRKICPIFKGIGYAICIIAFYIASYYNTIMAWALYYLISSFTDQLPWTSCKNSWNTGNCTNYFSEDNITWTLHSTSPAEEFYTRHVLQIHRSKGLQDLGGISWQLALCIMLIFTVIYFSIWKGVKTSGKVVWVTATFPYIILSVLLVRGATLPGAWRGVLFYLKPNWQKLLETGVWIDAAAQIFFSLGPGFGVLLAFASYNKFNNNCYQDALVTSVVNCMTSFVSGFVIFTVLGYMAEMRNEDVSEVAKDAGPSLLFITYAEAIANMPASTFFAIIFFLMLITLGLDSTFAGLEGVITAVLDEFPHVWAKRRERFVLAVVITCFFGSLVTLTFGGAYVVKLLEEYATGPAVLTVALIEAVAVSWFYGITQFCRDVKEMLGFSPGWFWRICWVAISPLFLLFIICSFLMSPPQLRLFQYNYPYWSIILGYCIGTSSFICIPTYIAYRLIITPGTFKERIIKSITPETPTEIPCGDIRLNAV
# assay name: [3H]paroxetine binding assay to human platelet membranes
parameter measured: Ki (nM)

>>> df
                                   compound  unit_label  measured_result
0  Cl.FC(F)(F)c1ccc(COC2(c3ccc(C(F)(F)F)cc3)CCNCC2)cc1 [21b]          nM              5.6
1  Cl.Fc1ccc(C2(OCc3ccc(C(F)(F)F)cc3)CCNCC2)cc1 [compound 20b]          nM             0.17
2  Cl.FC(F)(F)c1ccc(C2(OCc3ccc4c(c3)OCO4)CCNCC2)cc1 [21d]          nM             8.72
3  Cl.Fc1ccc(C2(OCc3ccc4c(c3)OCO4)CCNCC2)cc1 [20d]          nM             1.71

* * *

# tgt: UniProt:P31645
# assay name: [3H]5-HT uptake to human platelets
parameter measured: Ki (nM)

>>> print(df.to_string())
                                   molecule  parameter_measured  measured_result
0  Cl.FC(F)(F)c1ccc(COC2(c3ccc(C(F)(F)F)cc3)CCNCC2)cc1 [21b]                  Ki             2.77
1  Cl.Fc1ccc(C2(OCc3ccc4c(c3)OCO4)CCNCC2)cc1 [20d]                  Ki             1.75
2  Cl.FC(F)(F)c1ccc(C2(OCc3ccc4c(c3)OCO4)CCNCC2)cc1 [21d]                  Ki             3.26
3  Cl.Fc1ccc(C2(OCc3ccc(C(F)(F)F)cc3)CCNCC2)cc1 [compound 20b]                  Ki             0.08

* * *

parameter measured: melting point

In [3]: df
Out[3]:
                                   compound  measured_result
0  Cl.Fc1ccc(COC2(c3ccc(F)cc3)CCNCC2)cc1 [20a]    158 to 159 °C
1  Cl.Fc1ccc(C2(OCc3ccc(C(F)(F)F)cc3)CCNCC2)cc1 [compound 20b]    184 to 185 °C
2  Cl.Fc1ccc(C2(OCc3ccccc3F)CCNCC2)cc1 [20c]           202 °C
3  Cl.Fc1ccc(COC2(c3ccc(C(F)(F)F)cc3)CCNCC2)cc1 [21a]    261 °C (dec.)
4  Cl.FC(F)(F)c1ccc(COC2(c3ccc(C(F)(F)F)cc3)CCNCC2)cc1 [21b]    189 to 190 °C
5  Cl.Fc1ccccc1COC1(c2ccc(C(F)(F)F)cc2)CCNCC1 [21c]    210 °C (dec.)
